- measuredOn: T1, full CSP protein (analyte of Example 12) (Plasmodium falciparum (isolate 3D7), UniProt Q7K740 19-374)
- T1 construct: not shown: C-terminal tags
- procedureDetails: SPR, IgG1 from supernatant on anti-human IgG surface, CSP as analyte, 25 C, 1:1 fit
The binders listed here are annotated with their kon.
quantityName: kon

* CL-141806 (antibody, V domains shown, human IgG1, HEK (Expi293F) culture supernatant) VH: QVQLVQSGAEVKKPGASVKVSCKASGYTFTNYAIHWVRQAPGQRLEWMGWINAGNGNTKYSQKFQGRVTITRDTSASTAYMELSSLRSEDTAVYYCARDNFYGSGTYFSYFFYHMDVWGQGTTVTVSS VL: QSALTQPASVSGSPGQSITISCTGTSSDVGSYNHVSWYQQHPGKAPKLMIYDVSKRPSGMSDRFSGSKSGNTASLTISGLQAEDEADYYCCSYAGSSTWVFGGGTKLTVL | 284000 M⁻¹ s⁻¹
* CL-141792 (antibody, V domains shown, human IgG1, HEK (Expi293F) culture supernatant) VH: QVQLVQSGAEVKKPGASVKVSCKASGYTFTSYAMHWVRQAPGQRLEWMGWINAGNGYTKYSQNFQGRVTITRDTSASTAYMELSSLRSEDTAVYYCARDNYFDSSVYDSSYYFYYGMDVWGQGTTVTVSS VL: QSALTQPASVSGSPGQSITISCTGTSSDVGSYNHVSWYQQHPGKAPKLMIYDVSKRPSGVSNRFSGSKSGNTASLTISGLQAEDEADYYCCSYAGSSTWVFGGGTKLTVL | 51300 M⁻¹ s⁻¹
* CL-141766 (antibody, V domains shown, human IgG1, HEK (Expi293F) culture supernatant) VH: QVQLVQSGAEVKKPGASVKVSCKASGYTFTSYAMHWVRQAPGQRLEWMGWINAGNGNTKYSQKFQGGVTITRDTSASTAYMELSSLRSEDTAVYYCARDNYYDSGSYYDYYYYGMDVWGQGTTVTVSS VL: QSALTQPASVSGSPGQSITFSCTGTSSDVGSYNHVSWYQQHPGKAPKLMIYDVSKRPSGVSNRFSGSKSGNTASLTISGLQAEDEADYYCCSYAGSSTWVFGGGTKLTVL | 528000 M⁻¹ s⁻¹

Cited source: patent US20180362628A1
